System: EKVX
Assay: NCI tumour cell line growth inhibition, 48 h
The source made the active and inactive calls. Cut-off read from the data, not from the text of the source: active = GI50 up to about 1.1 µM and inactive = higher.
Possible outcomes: active, inactive

Compound | Category
N=C(CC/C(N)=N/O)NO | inactive
O=C(NCCc1ccccc1)C1C(=O)C(=O)N(CCc2ccccc2)C1=O (stereo not drawn) | inactive
Cc1ccc(C(=O)NC2C(=O)NC(C(C)C)C(=O)N3CCCC3C(=O)N(C)CC(=O)N(C)C(C(C)C)C(=O)OC2C)c2c1Oc1c(c(C(=O)NC3C(=O)NC(C(C)C)C(=O)N4CCCC4C(=O)N(C)CC(=O)N(C)C(C(C)C)C(=O)OC3C)c3nc(-c4ccccc4)c(=O)oc3c1C)N2 (stereo not drawn) | active
C[C@]12C/C(=C/O)C(=O)C(O)=C1CC[C@@H]1C2CC[C@@]2(C)C1CC[C@@H]2O (stereo partly drawn) | inactive
CN(CCC#N)c1ccc(/C=C2\SC(=S)NC2=O)cc1 | inactive
O=C1/C(=C/c2ccccc2)NC(=S)N1CN1CCCCC1 | inactive
COc1ccc(C2OCCN2C)cc1 (stereo not drawn) | inactive
CC1(C)CC(=O)c2c(nc3c(ccc4ccccc43)c2-c2ccc(NC(=O)CCCCCCCCC(=O)Nc3ccc(-c4c5c(nc6c4ccc4ccccc46)CC(C)(C)CC5=O)cc3)cc2)C1 | inactive
